Target sequence: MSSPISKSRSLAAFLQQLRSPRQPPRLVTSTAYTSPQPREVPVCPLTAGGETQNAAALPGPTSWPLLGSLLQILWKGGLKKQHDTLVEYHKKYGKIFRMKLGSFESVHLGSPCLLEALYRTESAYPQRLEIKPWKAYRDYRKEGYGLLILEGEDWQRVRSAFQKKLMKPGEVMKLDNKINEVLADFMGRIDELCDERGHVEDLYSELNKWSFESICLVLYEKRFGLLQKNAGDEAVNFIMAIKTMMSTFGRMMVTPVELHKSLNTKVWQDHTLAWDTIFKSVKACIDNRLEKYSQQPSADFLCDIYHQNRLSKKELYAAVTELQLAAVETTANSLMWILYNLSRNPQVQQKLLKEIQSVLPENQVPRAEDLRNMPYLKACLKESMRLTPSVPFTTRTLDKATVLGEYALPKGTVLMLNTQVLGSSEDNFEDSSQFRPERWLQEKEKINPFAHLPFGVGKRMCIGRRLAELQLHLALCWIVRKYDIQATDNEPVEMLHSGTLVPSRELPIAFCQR
pIC50: −log10 of the molar value.
Readout name: pIC50

Structure: COc1cc(/C=C/c2cccc3c2ccn3CCCCn2ccnc2)cc(OC)c1
Readout name: pIC50
Observed value: 6.72
//
Structure: Cc1ccc(S(=O)(=O)NCCCn2ccc3c(/C=C/c4ccccc4)cccc32)cc1
Readout name: pIC50
Observed value: 5.32
//
Structure: C(=C\c1cccc2c1ccn2CCCCn1ccnc1)/c1ccccc1
Readout name: pIC50
Observed value: 6.70
//
Structure: C(=C\c1cccc2c1ccn2CCCn1ccnc1)/c1ccccc1
Readout name: pIC50
Observed value: 6.44
//
Structure: C(=C\c1ccc2c(ccn2CCCCn2ccnc2)c1)/c1ccccc1
Readout name: pIC50
Observed value: 6.28
//
Structure: C(=C\c1ccc2c(ccn2CCCn2ccnc2)c1)/c1ccccc1
Readout name: pIC50
Observed value: 6.28

###

Record type: Ki measurement. Applies to: UniProtKB Q07973
Readout name: Ki

Structure: C(=C\c1ccc2c(ccn2CCCn2ccnc2)c1)/c1ccccc1
Observed value: 37 nM

Structure: Cc1ccc(S(=O)(=O)NCCCn2ccc3c(/C=C/c4ccccc4)cccc32)cc1
Observed value: 340 nM

Structure: Cc1ccc(S(=O)(=O)NCCCCn2ccc3c(/C=C/c4ccccc4)cccc32)cc1
Observed value: 230 nM

Structure: COc1cc(/C=C/c2cccc3c2ccn3CCCCNS(=O)(=O)c2ccc(C)cc2)cc(OC)c1
Observed value: 740 nM
